Each recorded value in this set is attributed to a melting point compilation (Tetko et al.; mined from patent text by program, amines drawn as free bases though some values may be those of a salt).

ATTRIBUTE_MEASURED: melting point

                              given_smiles  attribute_measured        reading
0    CCc1noc(C)c1-c1[nH]c2ccccc2c1CCCN(C)C       melting point  131 to 133 °C
1        Cc1c(C(=O)OC(C)(C)C)oc2cccc(O)c12       melting point  158 to 159 °C
2  O=C(OCC(CO)(CO)COC(=O)c1ccccc1)c1ccccc1       melting point  104 to 105 °C

* * *

Recorded melting point values for a group of compounds are listed next.
ATTRIBUTE_MEASURED: melting point

>>> print(df.to_string())
                               given_smiles        reading
0  Cc1ccccc1-n1c(C=Cc2ccccc2F)nc2cnccc2c1=O  211 to 212 °C
1  O=C(O)c1ccc(-c2cnc(-c3ccc(C(F)(F)F)cc3)o2)cc1  253 to 254 °C
2  C[C@@H]1CN(CC(=O)Nc2ccccc2C(F)(F)F)C[C@H](C)N1c1ncnc2sccc12  154 to 155 °C
3  CC(C)n1nc(-c2nc(C#Cc3cncn3C)c(N)nc2-c2ccccc2)ccc1=O       > 250 °C
4            c1ccc(-c2nc3ccccc3n3cncc23)cc1  165 to 167 °C

* * *

Overview of reported melting point across a group of compounds:
ATTRIBUTE_MEASURED: melting point

In [3]: df
Out[3]:
                                   compound  attribute_measured        reading
0      COn1c(-c2ccccc2)nc2ccc(Cn3ccnc3)cc21       melting point         142 °C
1  CN(CCN1CCC(=C(c2ccc(F)cc2)c2ccc(F)cc2)CC1)c1nc(=O)cc[nH]1       melting point  164 to 165 °C
2     N#Cc1cccnc1N1CCN(CC(=O)Nc2ccccc2F)CC1       melting point    78 to 79 °C
3  Cc1c2c(c3ccccc3c1NC(=O)CC(C)(C)C)OCC2c1ccc(C(C)C)cc1 (stereo unspecified)       melting point  183 to 184 °C
4  O=C(N[C@@H]1CCCC[C@H]1O)c1cnc(OCC(F)(F)F)c(-c2ccc(F)cc2)n1       melting point  133 to 134 °C
5  C=CC(O)C(NC=O)C(=O)OCC (stereo unspecified)       melting point    50 to 51 °C

* * *

Entries and their measured melting point follow.
ATTRIBUTE_MEASURED: melting point

In [3]: df
Out[3]:
                                    compound        reading
 0  CC1CC2C3CCC4=CC(=O)C=CC4(C)C3(F)C(O)CC2(C)C1(O)C(=O)COC(=O)OCc1ccccc1[N+](=O)[O-] (stereo not drawn)  203 to 204 °C
 1  Cc1c(CCN(C)C(=O)OC(C)(C)C)c2cc(S(=O)(=O)c3cc(F)cc(F)c3)ccc2n1C  158 to 162 °C
 2  CC(=O)NC(CCCCCCCCCCCCO)(COC(C)=O)COC(C)=O  75 to 76.5 °C
 3                CC1=N[C@H](c2ccccc2)COC1=O    71 to 72 °C
 4        CCCN(CCC)c1nc2c(Cl)nccc2c(=O)[nH]1         180 °C
 5  CCC(CC)(C(=O)N(C)C)n1cc(C)c(-c2ccccc2)n1  135 to 136 °C
 6  Cc1cc(Cc2ccccc2)nc(Nc2ccc(-n3cnc(C)n3)c(F)c2)n1  183 to 185 °C
 7  COc1ccc(C(=O)c2cc(Br)ccc2NC(=O)C(F)(F)F)cc1         149 °C
 8  CS(=O)(=O)Oc1ccc2c(c1)C(=O)C(CC=O)C2 (racemic)    85 to 87 °C
 9  CCCCC1Cc2c(c3cccnc3n(-c3ccc(C)cc3)c2=O)O1 (stereo not drawn)  282 to 284 °C
10  CN(CC(=O)O)C(=O)C(=O)c1cn(Cc2ccccc2)c2ccc(-c3cccc(OC(F)(F)F)c3)cc12  178 to 179 °C
11  Cn1cc([C@H]2CC[C@@H](N3CCN(c4cc(C(=O)O)cc5cccnc45)CC3)CC2)c2cc(C#N)ccc21         230 °C
12  CCOC(=O)C1=C(COCC(O)CCO)NC(C)=C(C(=O)OC)C1c1cccc(Cl)c1Cl (stereo not drawn)    86 to 89 °C
13  C#CCn1nnc2cc3c(cc2c1=O)OC1CCCN1C3=O (stereo not drawn)  186 to 188 °C
14  O=c1nc(-c2cccc(S(=O)(=O)CCc3ccccc3)n2)sc2ccccc12  162 to 164 °C
15  Cc1ccc(Nc2c(N)cc(C(=O)O)cc2S(N)(=O)=O)cc1  249 to 252 °C
16  C[C@H]1N(C(=O)c2ccc(C(F)(F)F)cc2)CC(=O)O[C@@]1(Cn1cncn1)c1ccc(C(F)(F)F)cc1 (relative stereo)  189 to 190 °C
17  CC(C)(C)NCC(O)C(Cl)(Cl)Cl (stereo not drawn)    48 to 50 °C
18  Cc1oc(-c2ccccc2)nc1COc1cccc2cc(NS(=O)(=O)C(F)(F)F)ccc12  192 to 194 °C
19  CSc1ccc(NC(=O)Nc2cc(-c3c(-c4ccc(F)c(C)c4)nc4cccnn34)ccn2)cc1  219 to 220 °C
20  CC(CC#N)C(=O)c1ccc(C(=O)C(C)CC#N)cc1 (stereo not drawn)  142 to 145 °C
21  O=C(O)CN(CC(=O)O)c1cc(OCCCCCCCCCCCCOc2ccccc2)cc(OCCCCCCc2cccc(O)c2O)c1  129 to 131 °C
22                    CON=C(OC)C(=O)c1ncsc1C          65 °C
23  O=C1CCC(=O)C(c2cccc(Cl)c2)N1 (stereo not drawn)  144 to 147 °C
24       CN(C)CCCOc1ccccc1C=C1CCc2ccccc2C1=O    67 to 69 °C
25  Cn1ncc(C(=O)N2CCS(=O)(=O)CC2)c1C(=O)Nc1ccn2nc(-c3ccccc3)nc2c1       > 250 °C
26  COc1ccc(-c2[nH]cnc2-c2cc(OC)c(Br)c(OC)c2)cc1N  160 to 162 °C
27  O=c1[nH]c2ccccc2cc1-c1csc(N(Cc2ccccc2)S(=O)(=O)c2ccccc2)n1  228 to 232 °C
28  CCCCCCc1cc2c(cc1/C=C/c1ccc(C(=O)O)s1)C(C)(C)CCC2(C)C  164 to 165 °C
29  C=CCOc1ccc(C(=O)Oc2ccc3ccc(OC(=O)C(=C)C)cc3c2)cc1          85 °C
30          COc1ccc2c(=O)c3c(OC)cccc3oc2c1OC  145 to 146 °C
31    COc1nc2cc(C)c(Cl)c(NS(C)(=O)=O)c2nc1OC         198 °C
32  O=c1c2c(Cl)cc(Cl)cc2n(Cc2ccccc2)c(=O)n1Cc1ccc(Cl)cc1  161 to 165 °C

* * *

Form field: melting point (one value per entry).
ATTRIBUTE_MEASURED: melting point

>>> print(df.to_string())
                                    molecule        reading
 0  Cc1cccc(C)c1NC(=O)CN1CCN2C(C1)C(=O)N(C(C)C)C2(C)C (configuration not stated)         155 °C
 1          COC(=O)c1c(-c2ccc(Cl)cc2)ccnc1Br    73 to 76 °C
 2  CCN(CC)CC(=O)OC1CC2(C)C(C(C)=O)CCC2C2CCC3CC(O)C(Br)CC3(C)C12 (configuration not stated)  149 to 150 °C
 3          CC(=O)NC1(c2ccc(=O)n(C)c2)CCCCC1  194 to 195 °C
 4  CC(C)Cc1sc2c(c1C(=O)c1ccccc1)CCC2C(=O)O (configuration not stated)  106 to 108 °C
 5  COc1cccc2c1nc(C(F)F)n2-c1nc(Nc2cncnc2)nc(N2CCOCC2)n1  293 to 295 °C
 6  c1cc(CCCCn2ccnc2)cc(OCc2ccc3oc(-c4cccs4)nc3c2)c1    97 to 98 °C
 7  CCCCCCCc1ccc(C=CC(=O)c2ccc(OCC=C(C)C)cc2OCC(=O)O)cc1  106 to 107 °C
 8  CCC(C)(C)NC(Nc1ccc2c(c1)OCO2)=C(C#N)S(C)(=O)=O    86 to 88 °C
 9  O=C1C2=C(C(=O)c3ccccc31)C(=O)C1CC(Cl)=CCC1C2=O (configuration not stated)  221 to 222 °C
10  CCOC(=O)c1cnc2n(c1=O)C(C)CCC2N(C)c1ccccc1 (configuration not stated)  175 to 178 °C
11  O=C(N[C@H](Cc1ccc(F)cc1)[C@@H](O)c1ccc(C(F)(F)F)cc1)c1ccc(F)c2ccccc12 (racemic)  235 to 236 °C
12  C=CCOC(=O)C1=C(C)Nc2nc(N)nc(N)c2C1c1cccc([N+](=O)[O-])c1 (configuration not stated)         188 °C
13  COC(=O)c1ccc(SCc2cccc(C(F)(F)F)c2)c(C)n1    91 to 93 °C
14  O=S(=O)(NCCc1ccc(CN2CCCCC2)cc1)c1ccc(Br)cc1  109 to 110 °C
15  Nc1ncnc2c1ncn2Cc1nc2ccc(Cl)cc2c(=O)n1-c1ccccc1Cl  294 to 295 °C
16  CC(C)(C)OC(=O)Nc1cc(CC#N)c(C#Cc2ccccc2)cc1[N+](=O)[O-]         166 °C
17  CCn1c2s[nH]c(=O)c2c(=O)c2cc(F)c(N3CCN(c4ncccn4)CC3)c(OC(F)F)c21  259 to 262 °C
18  Cc1sc(N2CCN(C(=O)OC(C)(C)C)CC2)nc1/C=C/c1cn(-c2ccccc2)nc1O  221 to 223 °C
19  OC[C@@H]1CN(C(c2ccccc2)(c2ccccc2)c2ccccc2)CCO1         142 °C
20  CN1C(=O)CN=C(c2ccccc2F)c2c1cc(Cl)c(NC(=O)C(F)(F)F)c2Cl  238 to 240 °C
21                     CCc1cc(OC)c(C=O)cc1OC    46 to 47 °C
